- Tested Target: human orexin-2 receptor (Homo sapiens, UniProt O43614)
- Construct: expressed in transfected cells; host or cells: CHO cells (G418 selection)
- Procedure Text: Intracellular calcium measurements (FLIPR), OX2 receptor antagonist activity
- Format: cell-based
- Condition Description: CHO cells expressing human orexin-2 receptor; 10 nM orexin-A as agonist; fluo-3 calcium signal
Entries and their IC50 values follow.
Endpoint Label: IC50 (nM)

| Molecule | Tested Target | Quantity Unit | Test Result |
| --- | --- | --- | --- |
| COc1ccc(CC2c3cc(OC)c(OC)cc3CCCN2CC(=O)NC2CCc3ccccc32)cc1OC (stereo not drawn) [Example 9] | human orexin-2 receptor (Homo sapiens, UniProt O43614) | nM | 1240 |
| COc1ccc(CC2c3cc(OC)c(OC)cc3CCCN2C(C(=O)NC2Cc3ccccc3C2)c2ccccc2)cc1OC (stereo not drawn) [Example 20] | human orexin-2 receptor (Homo sapiens, UniProt O43614) | nM | 231 |
| COc1ccc(CC2c3cc(OC)c(OC)cc3CCCN2C(C(=O)NCc2nc3ccccc3[nH]2)c2ccccc2)cc1OC (stereo not drawn) [Example 35] | human orexin-2 receptor (Homo sapiens, UniProt O43614) | nM | 7040 |

###

- Tested Target: human orexin-1 receptor (Homo sapiens)
- Construct: expressed in transfected cells; host or cells: CHO cells (G418 selection)
- Procedure Text: Intracellular calcium measurements (FLIPR), OX1 receptor antagonist activity
- Format: cell-based
- Condition Description: CHO cells expressing human orexin-1 receptor; 10 nM orexin-A as agonist; fluo-3 calcium signal
Classify: YES when IC50 is strictly less than 40 nM; NO when IC50 is not.

| Molecule | Tested Target | Label Value |
| --- | --- | --- |
| COc1ccc(CC2c3cc(OC(C)C)c(OC)cc3CCCN2CC(=O)NC2CCc3ccccc32)cc1OC (stereo not shown) | human orexin-1 receptor (Homo sapiens) | YES |
| COc1ccc(CC2c3cc(OC)c(OC)cc3CCCN2CC(=O)NC2CCc3ccccc32)cc1OC (stereo not shown) | human orexin-1 receptor (Homo sapiens) | YES |
| COc1ccc(CC2c3cc(OC)c(OC)cc3CCCN2C(C(=O)NCc2ccc3c(c2)OCO3)c2ccccc2)cc1OC (stereo not shown) | human orexin-1 receptor (Homo sapiens) | YES |
| COc1ccc(CC2c3cc(OC)c(OC)cc3CCCN2CC(=O)NC2Cc3ccccc3C2)cc1OC (stereo not shown) | human orexin-1 receptor (Homo sapiens) | NO |
| COc1ccc(CC2c3cc(OC)c(OC)cc3CCCN2C(C(=O)NCc2nc3ccccc3[nH]2)c2ccccc2)cc1OC (stereo not shown) | human orexin-1 receptor (Homo sapiens) | YES |

###

Readings of IC50 for the listed molecules
- Tested Target: human orexin-1 receptor (Homo sapiens, UniProt O43613)
- Construct: expressed in transfected cells; host or cells: CHO cells (G418 selection)
- Sequence (O43613 whole entry): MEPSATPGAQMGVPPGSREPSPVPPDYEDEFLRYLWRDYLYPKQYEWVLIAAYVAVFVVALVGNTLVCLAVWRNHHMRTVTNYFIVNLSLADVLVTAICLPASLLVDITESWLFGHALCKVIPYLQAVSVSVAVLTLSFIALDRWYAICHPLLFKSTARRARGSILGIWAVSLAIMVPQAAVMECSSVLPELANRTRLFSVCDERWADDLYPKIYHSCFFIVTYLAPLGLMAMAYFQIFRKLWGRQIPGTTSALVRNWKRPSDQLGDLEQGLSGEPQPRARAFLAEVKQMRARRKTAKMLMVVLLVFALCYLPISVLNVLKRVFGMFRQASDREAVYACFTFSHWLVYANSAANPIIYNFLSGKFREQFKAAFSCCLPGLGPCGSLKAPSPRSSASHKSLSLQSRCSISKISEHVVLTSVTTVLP
- Procedure Text: Intracellular calcium measurements (FLIPR), OX1 receptor antagonist activity
- Type: cell-based
- Condition Description: CHO cells expressing human orexin-1 receptor; 10 nM orexin-A as agonist; fluo-3 calcium signal

| Molecule | IC50, nM |
| --- | --- |
| COc1ccc(CC2c3cc(OC)c(OC)cc3CCCN2C(C(=O)NC2Cc3ccccc3C2)c2ccccc2)cc1OC (stereo not drawn) [Example 20] | 23 |
| COc1ccc(CC2c3cc(OC)c(OC)cc3OCCN2CC(=O)NC2CCc3ccccc32)cc1OC (racemic) [Example 5] | 64 |
| COc1ccc(CC2c3cc(OCC(F)F)c(OC)cc3CCCN2CC(=O)NC2CCc3ccccc32)cc1OC (stereo not drawn) [Example 69] | 9 |

###

- Tested Target: human orexin-2 receptor (Homo sapiens, UniProt O43614)
- Construct: expressed in transfected cells; host or cells: CHO cells (G418 selection)
- Sequence (O43614 1-444): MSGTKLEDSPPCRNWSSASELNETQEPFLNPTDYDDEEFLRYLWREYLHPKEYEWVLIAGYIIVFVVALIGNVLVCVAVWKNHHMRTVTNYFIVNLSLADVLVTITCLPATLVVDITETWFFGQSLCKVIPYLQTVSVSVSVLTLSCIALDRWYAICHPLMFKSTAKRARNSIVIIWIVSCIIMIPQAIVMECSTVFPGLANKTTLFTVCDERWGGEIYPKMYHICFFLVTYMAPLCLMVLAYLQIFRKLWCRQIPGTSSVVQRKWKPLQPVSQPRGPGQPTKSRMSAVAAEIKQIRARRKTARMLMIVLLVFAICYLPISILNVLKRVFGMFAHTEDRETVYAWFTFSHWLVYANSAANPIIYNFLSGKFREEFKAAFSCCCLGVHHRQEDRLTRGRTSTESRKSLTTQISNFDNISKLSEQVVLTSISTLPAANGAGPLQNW
- Procedure Text: Intracellular calcium measurements (FLIPR), OX2 receptor antagonist activity
- Type: cell-based
- Condition Description: CHO cells expressing human orexin-2 receptor; 10 nM orexin-A as agonist; fluo-3 calcium signal
Overview of reported log10(IC50) across a group of compounds:
Endpoint Label: log10(IC50) (log10 of the value in nM)

| Compound | log10(IC50) |
| --- | --- |
| COC(=O)CCNC(=O)C(c1ccccc1)N1CCCc2cc(OC)c(OC)cc2C1Cc1ccc(OC)c(OC)c1 (stereo not shown) | 3.96 |
| COc1ccc(CC2c3cc(OC)c(OC)cc3OCCN2CC(=O)NC2CCc3ccccc32)cc1OC (racemic) | 3.90 |
| COc1ccc(CC2c3cc(OCC(F)F)c(OC)cc3CCCN2CC(=O)NC2CCc3ccccc32)cc1OC (stereo not shown) | 2.54 |
| COc1ccc(CC2c3cc(OC(C)C)c(OC)cc3CCCN2CC(=O)NC2CCc3ccccc32)cc1OC (stereo not shown) | 2.24 |
| COc1ccc(CC2c3cc(OC)c(OC)cc3CCCN2C(C(=O)NCc2ccc3c(c2)OCO3)c2ccccc2)cc1OC (stereo not shown) | 2.28 |
| COc1ccc(CC2c3cc(OC)c(OC)cc3CCCN2C(C(=O)NCc2ccco2)c2ccccc2)cc1OC (stereo not shown) | 2.38 |
